Recorded pKd, one value per entry.
SYSTEM_TESTED: T1, talin-1 phosphotyrosine binding (TLN1 PTB) domain (human, UniProt Q9Y490 309-401)
T1 construct: source: E. coli BL21 (DE3), purified (Ni Sepharose, tag cleaved with HRV 3C protease)
PROTOCOL_DESCRIPTION: fluorescence polarisation; displacement: unlabelled peptide in serial dilution added to FITC-labelled probe peptide with the protein at 4x the KD value; 50 mM KPO4 pH 7.5; triplicates; sigmoidal dose-response fit
CONDITIONS: both partners purified
pKd (log units): -log10 of the concentration in mol/L.

BINDER | pKd
Ac-LADLIFTDSALYIPLE-NH2 [TPTE2_K101A peptide 92-107] | 4.82

Please find the next binder below.
Query: Could you share which pKd value was measured for Ac-LADLIFTDSKLYLPLE-NH2 [TPTE2_I104L peptide 92-107] ?
Response: 5.35

// data source = paper PMC12102759
